target: Beta-2 adrenergic receptor (Homo sapiens, UniProt P07550)
Sequence (P07550 whole entry): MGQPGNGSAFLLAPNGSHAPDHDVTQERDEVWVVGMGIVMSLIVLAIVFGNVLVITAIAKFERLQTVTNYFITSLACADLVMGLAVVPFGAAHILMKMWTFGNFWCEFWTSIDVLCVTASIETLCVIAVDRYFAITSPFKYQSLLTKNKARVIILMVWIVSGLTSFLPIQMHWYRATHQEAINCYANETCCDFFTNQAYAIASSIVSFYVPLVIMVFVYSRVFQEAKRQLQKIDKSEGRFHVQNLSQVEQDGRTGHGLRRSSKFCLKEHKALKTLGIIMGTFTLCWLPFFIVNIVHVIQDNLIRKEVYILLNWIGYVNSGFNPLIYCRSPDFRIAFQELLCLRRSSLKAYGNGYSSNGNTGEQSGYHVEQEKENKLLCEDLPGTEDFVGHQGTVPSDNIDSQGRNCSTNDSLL
pKi: −log10 of the molar value.
Measured quantity: pKi

>>> recorded_number("CS(=O)(=O)Nc1cc([C@@H](O)CNC2CCN(c3ccc(C(=O)N[C@@H](Cc4ccccc4)C(=O)O)cc3)CC2)ccc1O")
6.32
>>> recorded_number("CS(=O)(=O)Nc1cc([C@@H](O)CNC2CCN(c3ccc(C(=O)NCC(=O)O)cc3)CC2)ccc1O")
4.94
>>> recorded_number("CCCCCCNC(=O)Nc1ccc(S(=O)(=O)Nc2ccc(CCNC[C@H](O)COc3ccc(O)cc3)cc2)cc1 [L-755507]")
6.80
>>> recorded_number("CC(C)C[C@H](NC(=O)c1ccc(N2CCC(NC[C@H](O)c3ccc(O)c(NS(C)(=O)=O)c3)CC2)cc1)C(=O)O")
5.47

====

target: UniProt:P08588; assay: Increased cAMP levels of Chinese hamster ovary (CHO) cells expressing human beta 1 Adrenergic receptor; format: functional, cell-based
pEC50: −log10 of the molar value.
Reported pEC50 values follow for various compounds
Measured quantity: pEC50

>>> result("CS(=O)(=O)Nc1cc([C@@H](O)CNC2CCN(c3ccc(C(=O)NCC(=O)O)cc3)CC2)ccc1O")
7.30
>>> result("CC(C)[C@H](NC(=O)c1ccc(N2CCC(NC[C@H](O)c3ccc(O)c(NS(C)(=O)=O)c3)CC2)cc1)C(=O)O")
"< 5.00"
>>> result("CCCCN(CC(=O)O)C(=O)c1ccc(N2CCC(NC[C@H](O)c3ccc(O)c(NS(C)(=O)=O)c3)CC2)cc1")
"< 6.00"

====

biological target: Beta-1 adrenergic receptor (Homo sapiens, UniProt P08588); assay: Increased cAMP levels of Chinese hamster ovary (CHO) cells expressing human beta 1 Adrenergic receptor; type: functional, cell-based
Sequence (P08588 whole entry): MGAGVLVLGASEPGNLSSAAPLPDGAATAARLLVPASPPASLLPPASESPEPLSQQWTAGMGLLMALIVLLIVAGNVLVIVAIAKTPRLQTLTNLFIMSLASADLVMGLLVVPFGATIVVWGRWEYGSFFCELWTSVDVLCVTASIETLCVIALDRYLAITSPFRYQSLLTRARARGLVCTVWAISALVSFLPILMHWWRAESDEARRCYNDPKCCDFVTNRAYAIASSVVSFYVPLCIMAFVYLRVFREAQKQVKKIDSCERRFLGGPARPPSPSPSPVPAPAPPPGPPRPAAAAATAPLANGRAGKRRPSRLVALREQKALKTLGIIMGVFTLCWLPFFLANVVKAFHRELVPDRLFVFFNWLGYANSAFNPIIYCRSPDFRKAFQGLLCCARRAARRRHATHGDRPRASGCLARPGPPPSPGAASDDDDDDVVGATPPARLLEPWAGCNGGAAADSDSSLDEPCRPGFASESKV
pEC50: −log10 of the molar value.
Measured quantity: pEC50

>>> recorded_number("CS(=O)(=O)Nc1cc([C@@H](O)CNC2CCN(c3ccc(C(=O)N[C@@H](Cc4ccccc4)C(=O)O)cc3)CC2)ccc1O")
4.36
>>> recorded_number("CS(=O)(=O)Nc1cc([C@@H](O)CNC2CCN(c3ccc(CCC(=O)O)cc3)CC2)ccc1O")
5.01
>>> recorded_number("CCCCN(C(=O)CC(=O)O)c1ccc(N2CCC(NC[C@H](O)c3ccc(O)c(NS(C)(=O)=O)c3)CC2)cc1")
7.40
>>> recorded_number("CC(C)C[C@H](NC(=O)c1ccc(N2CCC(NC[C@H](O)c3ccc(O)c(NS(C)(=O)=O)c3)CC2)cc1)C(=O)O")
7.22
>>> recorded_number("CCOC(=O)CNC(=O)c1ccc(N2CCC(NC[C@H](O)c3ccc(O)c(NS(C)(=O)=O)c3)CC2)cc1")
5.35
>>> recorded_number("CS(=O)(=O)Nc1cc([C@@H](O)CNC2CCN(c3ccc(COCC(=O)O)cc3)CC2)ccc1O")
5.80
>>> recorded_number("CS(=O)(=O)Nc1cc([C@@H](O)CNC2CCN(c3ccc(NC(=O)CC(=O)O)cc3)CC2)ccc1O")
7.00
>>> recorded_number("CS(=O)(=O)Nc1cc([C@@H](O)CNC2CCN(c3ccc(C(N)=O)cc3)CC2)ccc1O")
5.92

====

target: Beta-3 adrenergic receptor (Homo sapiens, UniProt P13945); test: In vitro increase in cAMP levels in Chinese hamster ovary cells expressing the human cloned beta 3 Adrenergic receptor.
Sequence (P13945 whole entry): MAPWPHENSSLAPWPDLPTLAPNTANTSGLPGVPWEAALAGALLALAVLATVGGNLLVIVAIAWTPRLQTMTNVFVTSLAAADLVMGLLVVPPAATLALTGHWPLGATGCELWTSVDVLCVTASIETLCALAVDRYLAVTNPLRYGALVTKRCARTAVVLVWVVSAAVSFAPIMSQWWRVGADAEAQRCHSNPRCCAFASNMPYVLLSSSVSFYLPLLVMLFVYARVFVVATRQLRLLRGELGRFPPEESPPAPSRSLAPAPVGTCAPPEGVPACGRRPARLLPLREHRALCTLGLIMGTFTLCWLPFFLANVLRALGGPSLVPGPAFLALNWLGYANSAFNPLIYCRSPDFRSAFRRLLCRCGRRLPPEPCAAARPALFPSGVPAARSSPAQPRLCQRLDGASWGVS
Measured quantity: EC50 (nM)

>>> recorded_number("CS(=O)(=O)Nc1cc([C@@H](O)CNC2CCN(c3ccc(CC(=O)O)cc3)CC2)ccc1O")
270
>>> recorded_number("CCCCN(c1ccc(N2CCC(NC[C@H](O)c3ccc(O)c(NS(C)(=O)=O)c3)CC2)cc1)S(=O)(=O)CC(=O)O")
4
>>> recorded_number("CC(C)[C@H](NC(=O)c1ccc(N2CCC(NC[C@H](O)c3ccc(O)c(NS(C)(=O)=O)c3)CC2)cc1)C(=O)O")
26
>>> recorded_number("CCCCN(CC(=O)O)C(=O)c1ccc(N2CCC(NC[C@H](O)c3ccc(O)c(NS(C)(=O)=O)c3)CC2)cc1")
36
>>> recorded_number("CS(=O)(=O)Nc1cc([C@@H](O)CNC2CCN(c3ccc(C(N)=O)cc3)CC2)ccc1O")
20
>>> recorded_number("CS(=O)(=O)Nc1cc([C@@H](O)CNC2CCN(c3ccc(COCC(=O)O)cc3)CC2)ccc1O")
66
>>> recorded_number("CC(C)C[C@H](NC(=O)c1ccc(N2CCC(NC[C@H](O)c3ccc(O)c(NS(C)(=O)=O)c3)CC2)cc1)C(=O)O")
8
>>> recorded_number("CS(=O)(=O)Nc1cc([C@@H](O)CNC2CCN(c3ccc(CCC(=O)O)cc3)CC2)ccc1O")
39
>>> recorded_number("CS(=O)(=O)Nc1cc([C@@H](O)CNC2CCN(c3ccc(C(=O)O)cc3)CC2)ccc1O")
220
>>> recorded_number("CS(=O)(=O)Nc1cc([C@@H](O)CNC2CCN(c3ccc(C(=O)NCCC(=O)O)cc3)CC2)ccc1O")
260
>>> recorded_number("CS(=O)(=O)Nc1cc([C@@H](O)CNC2CCN(c3ccc(NC(=O)CC(=O)O)cc3)CC2)ccc1O")
130
>>> recorded_number("CS(=O)(=O)Nc1cc([C@@H](O)CNC2CCN(c3ccc(C(=O)NCC(=O)O)cc3)CC2)ccc1O")
60
>>> recorded_number("CCCCN(C(=O)CC(=O)O)c1ccc(N2CCC(NC[C@H](O)c3ccc(O)c(NS(C)(=O)=O)c3)CC2)cc1")
9
>>> recorded_number("CS(=O)(=O)Nc1cc([C@@H](O)CNC2CCN(c3ccc(C(=O)N[C@@H](CCC(=O)O)C(=O)O)cc3)CC2)ccc1O")
92
>>> recorded_number("CCOC(=O)CNC(=O)c1ccc(N2CCC(NC[C@H](O)c3ccc(O)c(NS(C)(=O)=O)c3)CC2)cc1")
15

====

molecular target: Beta-2 adrenergic receptor (Homo sapiens); test: Increased cAMP levels of Chinese hamster ovary (CHO) cells expressing human beta 2 adrenergic receptors
Reported EC50 values follow for various compounds
Measured quantity: EC50 (nM)

>>> recorded_number("CCCCN(C(=O)CC(=O)O)c1ccc(N2CCC(NC[C@H](O)c3ccc(O)c(NS(C)(=O)=O)c3)CC2)cc1")
60
>>> recorded_number("CS(=O)(=O)Nc1cc([C@@H](O)CNC2CCN(c3ccc(CCC(=O)O)cc3)CC2)ccc1O")
4700
>>> recorded_number("CS(=O)(=O)Nc1cc([C@@H](O)CNC2CCN(c3ccc(C(=O)N4CCC[C@H]4C(=O)O)cc3)CC2)ccc1O")
20
>>> recorded_number("CS(=O)(=O)Nc1cc([C@@H](O)CNC2CCN(c3ccc(NC(=O)CC(=O)O)cc3)CC2)ccc1O")
900
>>> recorded_number("CCCCN(CC(=O)O)C(=O)c1ccc(N2CCC(NC[C@H](O)c3ccc(O)c(NS(C)(=O)=O)c3)CC2)cc1")
10500
>>> recorded_number("CS(=O)(=O)Nc1cc([C@@H](O)CNC2CCN(c3ccc(C(N)=O)cc3)CC2)ccc1O")
270
>>> recorded_number("CS(=O)(=O)Nc1cc([C@@H](O)CNC2CCN(c3ccc(C(=O)NCC(=O)O)cc3)CC2)ccc1O")
40

====

Reported Thermogenesis values follow for various molecules
molecular target: Beta-3 adrenergic receptor (Homo sapiens); assay: Compound was tested for increased thermogenesis using beta-3 human transgenic mice
Sequence (P13945 whole entry, looked up): as the sequence (P13945 whole entry) above
Measured quantity: Thermogenesis

>>> result("CCCCCCNC(=O)Nc1ccc(S(=O)(=O)Nc2ccc(CCNC[C@H](O)COc3ccc(O)cc3)cc2)cc1")
"28%"
>>> result("CC(C)C[C@H](NC(=O)c1ccc(N2CCC(NC[C@H](O)c3ccc(O)c(NS(C)(=O)=O)c3)CC2)cc1)C(=O)O")
"53%"
>>> result("CCCCN(C(=O)CC(=O)O)c1ccc(N2CCC(NC[C@H](O)c3ccc(O)c(NS(C)(=O)=O)c3)CC2)cc1")
"35%"
>>> result("CS(=O)(=O)Nc1cc([C@@H](O)CNC2CCN(c3ccc(C(=O)NCC(=O)O)cc3)CC2)ccc1O")
"51%"

====

molecular target: Beta-2 adrenergic receptor (Homo sapiens, UniProt P07550); test: Increased cAMP levels of Chinese hamster ovary (CHO) cells expressing human beta 2 adrenergic receptors; format: functional, cell-based
Reported log10(EC50) values follow for various compounds
Measured quantity: log10(EC50) (log10 of the value in µM)

>>> recorded_number("CS(=O)(=O)Nc1cc([C@@H](O)CNC2CCN(c3ccc(C(=O)N[C@@H](Cc4ccccc4)C(=O)O)cc3)CC2)ccc1O")
0.18
>>> recorded_number("CC(C)C[C@H](NC(=O)c1ccc(N2CCC(NC[C@H](O)c3ccc(O)c(NS(C)(=O)=O)c3)CC2)cc1)C(=O)O")
-1.10
>>> recorded_number("CCOC(=O)CNC(=O)c1ccc(N2CCC(NC[C@H](O)c3ccc(O)c(NS(C)(=O)=O)c3)CC2)cc1")
0.51
>>> recorded_number("CS(=O)(=O)Nc1cc([C@@H](O)CNC2CCN(c3ccc(COCC(=O)O)cc3)CC2)ccc1O")
0.78
>>> recorded_number("CCCCCCNC(=O)Nc1ccc(S(=O)(=O)Nc2ccc(CCNC[C@H](O)COc3ccc(O)cc3)cc2)cc1")
-1.70
>>> recorded_number("CCCCN(c1ccc(N2CCC(NC[C@H](O)c3ccc(O)c(NS(C)(=O)=O)c3)CC2)cc1)S(=O)(=O)CC(=O)O")
0.70
